Target: human glucagon-like peptide-1 receptor (GLP-1R) (Homo sapiens, UniProt P43220)
Construct: host or cells: CHO chAMPion cells
Sequence (P43220 24-463): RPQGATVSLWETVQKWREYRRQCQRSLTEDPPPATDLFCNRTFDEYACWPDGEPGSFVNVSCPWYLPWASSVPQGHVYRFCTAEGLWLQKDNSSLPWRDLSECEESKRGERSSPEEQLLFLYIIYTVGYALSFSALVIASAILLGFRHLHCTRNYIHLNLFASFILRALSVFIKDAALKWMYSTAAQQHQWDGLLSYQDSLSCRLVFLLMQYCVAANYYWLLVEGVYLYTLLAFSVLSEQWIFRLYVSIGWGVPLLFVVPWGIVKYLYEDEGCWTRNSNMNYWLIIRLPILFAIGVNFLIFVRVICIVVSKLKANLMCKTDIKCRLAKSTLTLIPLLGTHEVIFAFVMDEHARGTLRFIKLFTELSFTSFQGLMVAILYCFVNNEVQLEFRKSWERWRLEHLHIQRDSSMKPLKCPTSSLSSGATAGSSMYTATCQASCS
Assay: Human GLP-1 receptor cell-based assay (flash luminescence, Target Activation phase)
Conditions: CHO chAMPion cells stably co-expressing human GLP-1R, Photina and cAMP-activated calcium channel; agonist activity; normalization by forskolin at 10 μM; ^a) values from single experiment; read-out: EC50 (μM) Target Activation (TA)
Where a SMILES comes first, the peptide text is derived from it. [ ]: non-standard residue; d: D form. Cit = NC(=O)NCCC[C@H](N)C(=O)O; Ac6c = NC1(C(=O)O)CCCCC1
observation_type: EC50 (µM)

{"compound": "CC(C)C[C@@H]1NC(=O)[C@H](CCC(=O)O)NC(=O)[C@H](Cc2ccccc2)NC(=O)C2(CCCCC2)NC(=O)[C@H]2CCCN2C(=O)[C@H](Cc2ccc(O)cc2)NC(=O)[C@H](CCCNC(N)=O)NC(=O)[C@H](Cc2c[nH]c3ccccc23)NC(=O)[C@H](C)NC(=O)[C@H](Cc2ccc(O)cc2)NC1=O [compound 38] (cyclo(FELYAW[Cit]Y[dP][Ac6c]))", "observation_type": "EC50", "reading_unit": "µM", "quantitative_readout": 0.93}

----------
Biological target: human glucagon-like peptide-1 receptor (GLP-1R) (Homo sapiens)
Construct: host or cells: CHO chAMPion cells
Test: Human GLP-1 receptor cell-based assay (flash luminescence, Target Activation phase)
Settings: CHO chAMPion cells stably co-expressing human GLP-1R, Photina and cAMP-activated calcium channel; agonist activity; normalization by forskolin at 10 μM; ^a) values from single experiment; read-out: EC50 (μM) Target Activation (TA)
Description: CHO chAMPion cells (Axxam SpA; S. Corazza, Assay Drug Dev. Technol. 2009, 7, 304-307) stably co-expressing the human glucagon-like peptide-1 receptor (GLP-1R), the Ca^2+-sensitive photoprotein PHOTINA® (S. Bovolenta et al., J. Biomol. Screen. 2007, 12, 694-704) and a mutated cAMP-activated calcium ion channel (WO2004/083803 A2) were used to monitor GLP-1R signaling after stimulation with an agonist. […]
Where a SMILES comes first, the peptide text is derived from it. [ ]: non-standard residue; d: D form. Tyr(Ph) = N[C@@H](Cc1ccc(Oc2ccccc2)cc1)C(=O)O; His(π-Bn) = N[C@@H](Cc1cncn1Cc1ccccc1)C(=O)O; Phe(4-CN) = N#Cc1ccc(C[C@H](N)C(=O)O)cc1; Phe(4-NH2) = Nc1ccc(C[C@H](N)C(=O)O)cc1; 3Pal = N[C@@H](Cc1cccnc1)C(=O)O; Ac8c = NC1(C(=O)O)CCCCCCC1; Ac6c = NC1(C(=O)O)CCCCC1; Ac5c = NC1(C(=O)O)CCCC1; Deg = CCC(N)(CC)C(=O)O; Aib = CC(C)(N)C(=O)O
observation_type: EC50 (µM)

{"compound": "C[C@@H]1NC(=O)[C@H](Cc2ccc(O)cc2)NC(=O)[C@H](CCC(N)=O)NC(=O)[C@H](Cc2c[nH]c3ccccc23)NC(=O)[C@H](Cc2ccccc2)NC(=O)C2(CCCCC2)NC(=O)[C@H]2CCCN2C(=O)[C@H](Cc2ccccc2)NC(=O)[C@H](CCC(=O)O)NC(=O)[C@H](Cc2c[nH]c3ccccc23)NC1=O [compound 24] (cyclo(FWQYAWEF[dP][Ac6c]))", "observation_type": "EC50", "reading_unit": "µM", "quantitative_readout": 0.89}
{"compound": "C[C@@H]1NC(=O)[C@H](Cc2ccc(O)cc2)NC(=O)[C@H](CCC(N)=O)NC(=O)[C@H](Cc2cccnc2)NC(=O)[C@H](Cc2ccccc2)NC(=O)C2(CCCCC2)NC(=O)[C@H]2CCCN2C(=O)[C@H](CCCNC(=N)N)NC(=O)[C@H](CCC(=O)O)NC(=O)[C@H](Cc2c[nH]c3ccccc23)NC1=O [compound 19] (cyclo(F[3Pal]QYAWER[dP][Ac6c]))", "observation_type": "EC50", "reading_unit": "µM", "quantitative_readout": 0.72}
{"compound": "COc1ccc(C[C@@H]2NC(=O)[C@H](CCC(=O)O)NC(=O)[C@H](Cc3c[nH]c4ccccc34)NC(=O)[C@H](C)NC(=O)[C@H](Cc3ccc(O)cc3)NC(=O)[C@H](CCC(N)=O)NC(=O)[C@H](Cc3c[nH]c4ccccc34)NC(=O)[C@H](Cc3ccccc3)NC(=O)C3(CCCCC3)NC(=O)[C@H]3CCCN3C2=O)cc1 [compound 9] (cyclo(FWQYAWEY(Me)[dP][Ac6c]))", "observation_type": "EC50", "reading_unit": "µM", "quantitative_readout": 0.8}
{"compound": "CC(C)C[C@@H]1NC(=O)[C@H](CCC(N)=O)NC(=O)[C@H](Cc2c[nH]c3ccccc23)NC(=O)[C@H](Cc2ccccc2)NC(=O)C2(CCCC2)NC(=O)[C@H]2CCCN2C(=O)[C@H](Cc2ccccc2)NC(=O)[C@H](CCC(=O)O)NC(=O)[C@H](Cc2c[nH]c3ccccc23)NC(=O)[C@H](C)NC1=O [compound 46] (cyclo(FWQLAWEF[dP][Ac5c]))", "observation_type": "EC50", "reading_unit": "µM", "quantitative_readout": 5.1}
{"compound": "C[C@@H]1NC(=O)[C@H](Cc2ccc(O)cc2)NC(=O)[C@H](CCC(N)=O)NC(=O)[C@H](Cc2ccc(Oc3ccccc3)cc2)NC(=O)[C@H](Cc2ccccc2)NC(=O)C(C)(C)NC(=O)[C@H]2CCCN2C(=O)[C@H](CCCNC(=N)N)NC(=O)[C@H](CCC(=O)O)NC(=O)[C@H](Cc2c[nH]c3ccccc23)NC1=O [compound 11] (cyclo(F[Tyr(Ph)]QYAWER[dP][Aib]))", "observation_type": "EC50", "reading_unit": "µM", "quantitative_readout": 0.54}
{"compound": "CC(C)C[C@@H]1NC(=O)[C@H](CC(C)C)NC(=O)[C@H](CCC(=O)O)NC(=O)[C@H](Cc2ccccc2)NC(=O)C2(CCCCC2)NC(=O)[C@H]2CCCN2C(=O)[C@H](Cc2ccccc2)NC(=O)[C@H](CCC(=O)O)NC(=O)[C@H](Cc2c[nH]c3ccccc23)NC(=O)[C@H](C)NC1=O [Ex. 43] (cyclo(FELLAWEF[dP][Ac6c]))", "observation_type": "EC50", "reading_unit": "µM", "quantitative_readout": 4.5}
{"compound": "CC(C)C[C@@H]1NC(=O)[C@H](CCC(=O)O)NC(=O)[C@H](Cc2ccccc2)NC(=O)C2(CCCCC2)NC(=O)[C@H]2CCCN2C(=O)[C@H](Cc2ccc(O)cc2)NC(=O)[C@H](CCC(=O)O)NC(=O)[C@H](Cc2c[nH]c3ccccc23)NC(=O)[C@H](C)NC(=O)[C@H](Cc2ccc(C#N)cc2)NC1=O [compound 37] (cyclo(FEL[Phe(4-CN)]AWEY[dP][Ac6c]))", "observation_type": "EC50", "reading_unit": "µM", "quantitative_readout": 0.88}
{"compound": "C[C@@H]1NC(=O)[C@H](Cc2ccc(O)cc2)NC(=O)[C@H](CCC(N)=O)NC(=O)[C@H](Cc2ccc(N)cc2)NC(=O)[C@H](Cc2ccccc2)NC(=O)C2(CCCCC2)NC(=O)[C@H]2CCCN2C(=O)[C@H](Cc2ccc(O)cc2)NC(=O)[C@H](CCC(=O)O)NC(=O)[C@H](Cc2c[nH]c3ccccc23)NC1=O [compound 3] (cyclo(F[Phe(4-NH2)]QYAWEY[dP][Ac6c]))", "observation_type": "EC50", "reading_unit": "µM", "quantitative_readout": 0.18}
{"compound": "CC(C)C[C@@H]1NC(=O)[C@H](CC(C)C)NC(=O)[C@H](CCC(=O)O)NC(=O)[C@H](Cc2ccccc2)NC(=O)C2(CCCCCCC2)NC(=O)[C@H]2CCCN2C(=O)[C@H](Cc2ccccc2)NC(=O)[C@H](CCC(=O)O)NC(=O)[C@H](Cc2c[nH]c3ccccc23)NC(=O)[C@H](C)NC1=O [compound 54] (cyclo(FELLAWEF[dP][Ac8c]))", "observation_type": "EC50", "reading_unit": "µM", "quantitative_readout": 1.1}
{"compound": "CCC1(CC)NC(=O)[C@H]2CCCN2C(=O)[C@H](Cc2ccccc2)NC(=O)[C@H](CCC(=O)O)NC(=O)[C@H](Cc2c[nH]c3ccccc23)NC(=O)[C@H](C)NC(=O)[C@H](CC(C)C)NC(=O)[C@H](CC(C)C)NC(=O)[C@H](CCC(=O)O)NC(=O)[C@H](Cc2ccccc2)NC1=O [compound 47] (cyclo(FELLAWEF[dP][Deg]))", "observation_type": "EC50", "reading_unit": "µM", "quantitative_readout": 2}
{"compound": "CC(C)C[C@@H]1NC(=O)[C@H](CCC(=O)O)NC(=O)[C@H](Cc2ccccc2)NC(=O)C2(CCCCC2)NC(=O)[C@H]2CCCN2C(=O)[C@H](Cc2cncn2Cc2ccccc2)NC(=O)[C@H](CCC(=O)O)NC(=O)[C@H](Cc2c[nH]c3ccccc23)NC(=O)[C@H](C)NC(=O)[C@H](Cc2ccc(O)cc2)NC1=O [compound 36] (cyclo(FELYAWE[His(π-Bn)][dP][Ac6c]))", "observation_type": "EC50", "reading_unit": "µM", "quantitative_readout": 0.85}
